Below are IC50 values for Cytochrome P450 11B2, mitochondrial (Homo sapiens, UniProt P19099) collected from several publications.
- target: Cytochrome P450 11B2, mitochondrial (Homo sapiens, UniProt P19099)
- Sequence (P19099 whole entry): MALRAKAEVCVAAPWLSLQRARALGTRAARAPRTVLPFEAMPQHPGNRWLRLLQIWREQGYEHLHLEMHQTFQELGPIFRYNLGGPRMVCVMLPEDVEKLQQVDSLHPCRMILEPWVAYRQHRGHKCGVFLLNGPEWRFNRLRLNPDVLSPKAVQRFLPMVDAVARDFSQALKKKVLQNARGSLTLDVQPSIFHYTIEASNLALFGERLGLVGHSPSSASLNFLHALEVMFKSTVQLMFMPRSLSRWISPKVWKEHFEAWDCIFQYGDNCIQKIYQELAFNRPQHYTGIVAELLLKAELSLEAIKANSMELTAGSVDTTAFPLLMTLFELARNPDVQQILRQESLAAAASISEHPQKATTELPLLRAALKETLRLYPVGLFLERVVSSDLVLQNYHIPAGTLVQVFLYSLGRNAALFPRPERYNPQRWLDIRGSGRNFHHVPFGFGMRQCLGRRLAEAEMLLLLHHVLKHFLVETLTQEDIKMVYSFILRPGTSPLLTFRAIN
measurementName: IC50 (µM)

[
  {
    "molecularString": "CN(C)C(=O)c1ccc(-c2cccnc2)c(OCCc2ccccc2)c1",
    "measuredResult": 0.299
  },
  {
    "molecularString": "Cc1ccc(S(=O)(=O)N2CCCc3cc(-c4cccnc4)ccc32)cc1",
    "measuredResult": 0.555
  },
  {
    "molecularString": "O=C(Cn1ccnc1)c1ccc(OCc2ccc(OC(F)(F)F)cc2)cc1",
    "measuredResult": 0.669
  },
  {
    "molecularString": "COC(=O)Cc1cncc(-c2ccc3cc(OC)ccc3c2)c1",
    "measuredResult": 0.0069
  }
]

----------
Below are IC50 values for the protein given by its sequence collected from several publications.
Target protein (sequence): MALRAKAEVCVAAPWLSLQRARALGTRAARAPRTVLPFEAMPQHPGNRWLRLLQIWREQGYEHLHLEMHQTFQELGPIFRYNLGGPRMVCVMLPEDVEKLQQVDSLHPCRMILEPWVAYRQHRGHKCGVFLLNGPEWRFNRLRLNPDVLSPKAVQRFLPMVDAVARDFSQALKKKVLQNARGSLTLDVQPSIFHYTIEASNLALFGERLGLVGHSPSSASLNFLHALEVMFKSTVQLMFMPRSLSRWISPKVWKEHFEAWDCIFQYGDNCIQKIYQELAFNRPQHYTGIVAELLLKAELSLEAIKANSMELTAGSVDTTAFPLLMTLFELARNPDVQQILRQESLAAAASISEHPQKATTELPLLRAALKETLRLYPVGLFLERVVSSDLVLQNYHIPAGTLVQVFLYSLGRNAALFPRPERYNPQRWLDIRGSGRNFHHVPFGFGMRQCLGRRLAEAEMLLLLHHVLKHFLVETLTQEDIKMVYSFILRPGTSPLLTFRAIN
measurementName: IC50 (nM)

[
  {
    "molecule": "Fc1ccc(-c2ccncc2)c(OCCc2ccccc2)c1",
    "target": "the protein given by its sequence",
    "measuredResult": 74
  },
  {
    "molecule": "CS(=O)(=O)N1CCC(C(=O)c2cncnc2Nc2ccc(F)cc2)CC1",
    "target": "the protein given by its sequence",
    "measuredResult": 109
  },
  {
    "molecule": "CCN1C(=O)CCc2cc(-c3cccnc3)ccc21",
    "target": "the protein given by its sequence",
    "measuredResult": 22
  },
  {
    "molecule": "N#Cc1ccc(-c2cccnc2)cc1",
    "target": "the protein given by its sequence",
    "measuredResult": 40
  },
  {
    "molecule": "Nc1ccc(-c2ccc(Cc3ccncc3)cc2)cc1N",
    "target": "the protein given by its sequence",
    "measuredResult": 367
  },
  {
    "molecule": "[O-][S+](c1ccccc1)c1c(O)c(-c2cccnc2)cc2ccccc12 (stereo unspecified)",
    "target": "the protein given by its sequence",
    "measuredResult": 33
  }
]
